# activity at 0.01 µM per record follows
- Tested on: iCell endothelial cells (human iPSC-derived ECs)
- experiment.description: Tube formation (tubulogenesis) assay in iCell endothelial cells, 18 h
- Assay type: cell-based
- applied.conditions: Homo sapiens, Endothelial cell, iPSC-EC tube formation, 18 hr, 0.01 µM, 0.00 µM control = 100.00, read-out: endo.tta.18hr
Structures can show the parent of a compound that is named as a salt.
Give the number; % is assumed, so skip it.

Below: 5 compounds and their reported activity at 0.01 µM.
compound=Clc1ccc(Cl)c(-c2cc(Cl)ccc2Cl)c1 measurement_unit=% observed_result=152
compound=Oc1cc(Cl)cc(-c2cccc(Cl)c2)c1 measurement_unit=% observed_result=155
compound=Oc1ccc(-c2ccc(Cl)cc2)cc1 measurement_unit=% observed_result=97.5
compound=Oc1cc(Cl)c(-c2cc(Cl)ccc2Cl)cc1Cl measurement_unit=% observed_result=144
compound="O=S(=O)(O)Oc1ccc(-c2ccc(Cl)cc2)cc1 [4'-yl PCB 3 sulfate]" measurement_unit=% observed_result=157

Next compound, please.
What the record says about O=S(=O)(O)Oc1ccc(-c2cccc(Cl)c2)cc1Cl [4-yl PCB 11 sulfate] : activity at 0.01 µM is 174

====

- Test system: iCell endothelial cells (human iPSC-derived ECs)
- experiment.description: High-content imaging cytotoxicity in iCell endothelial cells, 24 h
- Type: cell-based
- applied.conditions: Homo sapiens, Endothelial cell, iPSC-EC, 24 hr, 100.00 µM, 0.00 µM control = 100.00, read-out: endo.nma.24hr
Where a name gives a salt, the structure may show the parent alone.
# activity at 100 µM per record follows
Give the number; % is assumed, so skip it.

molecule="O=S(=O)(O)Oc1cccc(-c2ccc(Cl)cc2)c1 [3'-yl PCB 3 sulfate]" measurement_unit=% observed_result=97.4

What the record says about O=S(=O)(O)Oc1cc(-c2ccccc2)ccc1Cl [3-yl PCB 3 sulfate] : activity at 100 µM is 99.8

What the record says about `Oc1cccc(-c2ccc(Cl)cc2)c1` : activity at 100 µM is 90.1

What the record says about `Oc1ccc(-c2cccc(Cl)c2)cc1Cl` : activity at 100 µM is 88

What the record says about `COc1ccc(-c2ccc(Cl)cc2)cc1` : activity at 100 µM is 99.7

What the record says about `Oc1ccc(O)c(-c2ccc(Cl)cc2)c1` : activity at 100 µM is 184

What the record says about O=S(=O)(O)Oc1cc(Cl)c(-c2cc(Cl)ccc2Cl)cc1Cl [4-yl PCB 52 sulfate] : activity at 100 µM is 104

What the record says about `Clc1ccc(-c2ccccc2)cc1` : activity at 100 µM is 95.7

What the record says about `Oc1ccc(-c2ccc(Cl)cc2)cc1` : activity at 100 µM is 101

====

# activity at 1 µM per record follows
- System: iCell cardiomyocytes (human iPSC-derived cardiomyocytes)
- experiment.description: High-content imaging of cytotoxicity and mitochondrial integrity in iPSC-CMs
- Format: cell-based
- applied.conditions: Homo sapiens, Cardiomyocyte, 24 h, 1.00 µM; 0.00 µM = 100.00; read-out: cm.mii.24hrs
Structures can show the parent of a compound that is named as a salt.
Give the number; % is assumed, so skip it.

Below: 2 compounds and their reported activity at 1 µM.
compound=Oc1ccc(-c2ccc(Cl)cc2)cc1 observed_result=106
compound=Oc1ccc(O)c(-c2ccc(Cl)cc2)c1 observed_result=98.1

Entry O=S(=O)(O)Oc1ccc(-c2ccc(Cl)cc2)cc1 [4'-yl PCB 3 sulfate] , iCell cardiomyocytes (human iPSC-derived cardiomyocytes) data, activity at 1 µM value: 98.9

Entry O=S(=O)(O)Oc1cccc(-c2ccc(Cl)cc2)c1 [3'-yl PCB 3 sulfate] , iCell cardiomyocytes (human iPSC-derived cardiomyocytes) data, activity at 1 µM value: 100

Entry O=S(=O)(O)Oc1cc(-c2ccccc2)ccc1Cl [3-yl PCB 3 sulfate] , iCell cardiomyocytes (human iPSC-derived cardiomyocytes) data, activity at 1 µM value: 102

Entry `Clc1cccc(-c2cccc(Cl)c2)c1` , iCell cardiomyocytes (human iPSC-derived cardiomyocytes) data, activity at 1 µM value: 93.7
